B1: glmS ribozyme (parent)
chain: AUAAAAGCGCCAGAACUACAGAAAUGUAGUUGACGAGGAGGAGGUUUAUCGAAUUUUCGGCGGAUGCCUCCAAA

# Variants of: B1
# method: self-cleavage kobs at 10000 uM GlcN6P; higher = faster cleavage; RNA array
# experimental.context: with glucosamine-6-phosphate
Fewer inactive variants are shown than the library holds.
readout.label: self-cleavage kobs at 10000 uM GlcN6P (s⁻¹)

[
  {
    "mutation.list": "G9A G29A G40U G51A",
    "op": "<",
    "numeric.value": "1e-05"
  },
  {
    "mutation.list": "A36C G41U U45G C67G",
    "op": "<",
    "numeric.value": "1e-05"
  },
  {
    "mutation.list": "A15C C67U",
    "op": "=",
    "numeric.value": 0.00139
  },
  {
    "mutation.list": "G38A G43U",
    "op": "<",
    "numeric.value": "1e-05"
  },
  {
    "mutation.list": "C8G C10U U54G",
    "op": "<",
    "numeric.value": "1e-05"
  },
  {
    "mutation.list": "U65C G66C",
    "op": "<",
    "numeric.value": "1e-05"
  },
  {
    "mutation.list": "G13U U69A",
    "op": "=",
    "numeric.value": "3.28e-05"
  },
  {
    "mutation.list": "G13C C71A",
    "op": "=",
    "numeric.value": "4.74e-05"
  },
  {
    "mutation.list": "U31C U46A",
    "op": "=",
    "numeric.value": 0.000234
  },
  {
    "mutation.list": "C10U C50G U57G",
    "op": "=",
    "numeric.value": "4.71e-05"
  },
  {
    "mutation.list": "C10U G66U",
    "op": "<",
    "numeric.value": "1e-05"
  },
  {
    "mutation.list": "C11G G40A G43A",
    "op": "<",
    "numeric.value": "1e-05"
  },
  {
    "mutation.list": "C11A A15G U57A G62U",
    "op": "<",
    "numeric.value": "1e-05"
  },
  {
    "mutation.list": "A42U U45G",
    "op": "=",
    "numeric.value": 0.000278
  },
  {
    "mutation.list": "A15G G29A G63U",
    "op": "<",
    "numeric.value": "1e-05"
  },
  {
    "mutation.list": "A52U A53C G62C",
    "op": "<",
    "numeric.value": "1e-05"
  },
  {
    "mutation.list": "U30G A53G",
    "op": "=",
    "numeric.value": 0.0151
  },
  {
    "mutation.list": "G44A A48G U55A",
    "op": "<",
    "numeric.value": "1e-05"
  },
  {
    "mutation.list": "G32A C67U",
    "op": "=",
    "numeric.value": 0.000854
  },
  {
    "mutation.list": "U45A U49G",
    "op": "=",
    "numeric.value": 0.00132
  },
  {
    "mutation.list": "G29A G60C",
    "op": "<",
    "numeric.value": "1e-05"
  },
  {
    "mutation.list": "U56G C71U",
    "op": "=",
    "numeric.value": 0.0163
  },
  {
    "mutation.list": "C10U G59C C68A",
    "op": "<",
    "numeric.value": "1e-05"
  },
  {
    "mutation.list": "A6C A53G",
    "op": "=",
    "numeric.value": "8.97e-05"
  },
  {
    "mutation.list": "A6U C11U G32U",
    "op": "<",
    "numeric.value": "1e-05"
  },
  {
    "mutation.list": "C16U C70U",
    "op": "=",
    "numeric.value": 0.00694
  },
  {
    "mutation.list": "G44U C58U G62U C68A",
    "op": "<",
    "numeric.value": "1e-05"
  },
  {
    "mutation.list": "A1U G41U C70G C71U",
    "op": "=",
    "numeric.value": 0.000232
  },
  {
    "mutation.list": "U47A C50A",
    "op": "=",
    "numeric.value": "2.6e-05"
  },
  {
    "mutation.list": "G38C U65C",
    "op": "<",
    "numeric.value": "1e-05"
  },
  {
    "mutation.list": "G7U G51A U56G",
    "op": "<",
    "numeric.value": "1e-05"
  },
  {
    "mutation.list": "A39C G62A",
    "op": "<",
    "numeric.value": "1e-05"
  },
  {
    "mutation.list": "G60C C70G",
    "op": "<",
    "numeric.value": "1e-05"
  },
  {
    "mutation.list": "G40A A53U",
    "op": "=",
    "numeric.value": 0.00711
  },
  {
    "mutation.list": "G51A U65C",
    "op": "<",
    "numeric.value": "1e-05"
  },
  {
    "mutation.list": "C8U C11U U57G C67G",
    "op": "=",
    "numeric.value": 0.000608
  },
  {
    "mutation.list": "G9A U31C A52U",
    "op": "<",
    "numeric.value": "1e-05"
  },
  {
    "mutation.list": "A33U G37U C50G U69A",
    "op": "=",
    "numeric.value": 0.000105
  },
  {
    "mutation.list": "A33U G41U",
    "op": "=",
    "numeric.value": "2.14e-05"
  }
]
